Origin of values: PubChem BioAssay (NCI)

Test system: UACC-62 melanoma
Test details: NCI tumour cell line growth inhibition, 48 h; in the data active = GI50 below about 0.43 µM; inactive = the rest
Labels: active, inactive

# Compound, Class label
measured = [
    ("Nc1cc(N)c2nc(NCCc3ccc(Cl)c(Cl)c3)cnc2c1", "inactive"),
    ("COCCCC(NC(=O)C(CC(C)C)NC(=O)OCc1ccc(OC)cc1)C(=O)OC (centres undefined)", "inactive"),
    ("COc1cc(C2CC(c3cccc(Nc4ccnc5cc(Cl)ccc45)c3)=NN2c2ccccc2)cc(OC)c1OC (centres undefined)", "inactive"),
    ("O=C(/C=C/C=C/c1ccc2c(c1)OCO2)N/N=C\\c1ccc(O)cc1O", "inactive"),
    ("CN(C)CCCCNc1ccc(NCCCCN(C)C)c2c1C(=O)c1c(O)ccc(O)c1C2=O", "inactive"),
    ("Cc1c(C(=O)c2ccccc2)[n+](=O)c2cc(F)c(F)cc2n1[O-]", "inactive"),
    ("COCCn1c2c([n+](Cc3cnccn3)c1C)C(=O)c1ccccc1C2=O", "active"),
    ("COC(=O)c1c2c(c(C)[n+]([O-])c1C)C(=O)C(NCc1ccc(O)cc1)=CC2=O", "inactive"),
    ("O=C(NN1C(=O)CSC1c1c(Cl)cccc1Cl)C(O)c1ccccc1 (centres undefined)", "inactive"),
]
